- Target or system: ERα (Homo sapiens, UniProt P03372)
- Construct: host or cells: MCF7 cells
- Sequence (P03372 1-595): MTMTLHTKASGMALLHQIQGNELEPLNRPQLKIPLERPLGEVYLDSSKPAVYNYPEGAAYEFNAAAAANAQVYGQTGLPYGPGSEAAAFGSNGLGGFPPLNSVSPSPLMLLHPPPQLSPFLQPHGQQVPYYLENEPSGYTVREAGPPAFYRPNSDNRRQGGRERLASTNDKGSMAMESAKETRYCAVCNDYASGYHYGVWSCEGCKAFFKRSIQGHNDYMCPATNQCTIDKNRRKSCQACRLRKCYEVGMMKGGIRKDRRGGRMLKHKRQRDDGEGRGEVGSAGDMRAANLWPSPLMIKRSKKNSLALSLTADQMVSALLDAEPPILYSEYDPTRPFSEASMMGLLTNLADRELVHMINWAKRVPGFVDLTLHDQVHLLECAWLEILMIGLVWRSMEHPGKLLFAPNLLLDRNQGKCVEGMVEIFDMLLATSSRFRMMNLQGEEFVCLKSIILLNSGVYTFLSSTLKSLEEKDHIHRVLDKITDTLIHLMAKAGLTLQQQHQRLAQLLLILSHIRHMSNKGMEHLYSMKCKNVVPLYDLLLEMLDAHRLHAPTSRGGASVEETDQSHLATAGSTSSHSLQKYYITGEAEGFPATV
- Assay details: Estrogen receptor degradation activity: breast cancer cell ERα in cell western assay (MCF7 cells)
- Type: cell-based
- Condition context: 4 hours, final concentrations ranging from 0.3-0.0000018 μM, relative to fulvestrant 0.1 μM positive control
The class of a record is decided solely by its measured % Degradation At 0.3 μM; consult 0 = under 70%, 1 = from 70% up to 80%, 2 = 80% and over

Example cases with answers are listed next.
Molecule	Target or system	Qualitative label
O=[N+]([O-])c1cccc(-c2ccc3c(c2)CCCC(c2cccc(F)c2Cl)=C3c2ccc(O[C@H]3CCN(CCCF)C3)cc2)c1	ERα (Homo sapiens, UniProt P03372)	1
OB(O)c1ccc2c(c1)CCCC(c1ccccc1)=C2c1ccc(O[C@H]2CCN(CCCF)C2)cc1	ERα (Homo sapiens, UniProt P03372)	2
CC1(C)OB(c2ccc3c(c2)CCCC(c2ccccc2)=C3c2ccc(O[C@H]3CCN(CCCF)C3)cc2)OC1(C)C	ERα (Homo sapiens, UniProt P03372)	2
CS(=O)(=O)Nc1ccc2c(c1)CCCC(c1cccc(F)c1Cl)=C2c1ccc(O[C@H]2CCN(CCCF)C2)cc1	ERα (Homo sapiens, UniProt P03372)	1
NC(=O)C(=O)Nc1ccc2c(c1)CCCC(c1ccc(Cl)cc1Cl)=C2c1ccc(O[C@H]2CCN(CCCF)C2)cc1	ERα (Homo sapiens, UniProt P03372)	0
O=C(O)c1ccc(-c2ccc3c(c2)CCCC(c2ccc(Cl)cc2Cl)=C3c2ccc(O[C@H]3CCN(CCCF)C3)cc2)cc1	ERα (Homo sapiens, UniProt P03372)	1
O=C(Nc1ccc2c(c1)CCCC(c1ccc(Cl)cc1Cl)=C2c1ccc(O[C@H]2CCN(CCCF)C2)cc1)C1CC1(F)F (stereo partly shown)	ERα (Homo sapiens, UniProt P03372)	1
OC(c1ccc2c(c1)CCCC(c1cccc(F)c1Cl)=C2c1ccc(O[C@H]2CCN(CCCF)C2)cc1)C(F)(F)F (stereo partly shown)	ERα (Homo sapiens, UniProt P03372)	2

Exercise: read the entry COC(=O)c1ccccc1-c1ccc2c(c1)CCCC(c1ccc(Cl)cc1Cl)=C2c1ccc(O[C@H]2CCN(CCCF)C2)cc1 and state which class it falls under. 0

Please indicate the class for CCOC(=O)C(=O)Nc1ccc2c(c1)CCCC(c1ccc(Cl)cc1Cl)=C2c1ccc(O[C@H]2CCN(CCCF)C2)cc1 based on its % Degradation At 0.3 μM. 1

Place this molecule in its band: CC(C)(O)c1ccc(-c2ccc3c(c2)CCCC(c2cccc(F)c2Cl)=C3c2ccc(O[C@H]3CCN(CCCF)C3)cc2)cc1 0
